tested on: PC-3; assay: Cytotoxicity against human PC3 cells after 48 hrs by SRB assay; type: functional, cell-based; details: PC-3, 48 h
readout.label: pIC50
Would you please state pIC50, meaning minus log10 of the concentration in mol/L, as a bare number?

Data request: Could you tell me which pIC50 is on file for O=C1C[C@@H]2/C(=C(O)\C=C\c3ccccc3)C(=O)C=C[C@@H]2O1 [CRYPTOCARYONE] ?
Data returned: 5.80

* * *

test system: A2780S; experiment: Cytotoxicity against human A2780S cells; assay type: functional, cell-based
readout.label: IC50 (nM)
Response body: numeric value in nM, unit text excluded.

Data request: Could you tell me which IC50 is on file for CC(=O)N[C@H](C(=O)N[C@H]1C(O)O[C@H](CO)[C@@H](O)[C@@H]1O)C(C)(C)SN=O (stereo partly specified) ?
Data returned: 4.2

* * *

target: Solute carrier family 2, facilitated glucose transporter member 1 (Homo sapiens, UniProt P11166); assay: Mixed type non-competitive inhibition of glucose displaceable binding of [4-3H]cytochalasin B to GLUT1 in human erythrocyte membranes after 10 mins; format: cell membranes
readout.label: Ki (µM)
Response body: numeric value in µM, unit text excluded.

Data request: Could you tell me which Ki is on file for `Cc1cc2c(C(C)C)c(O)c(O)c(C=O)c2c(O)c1-c1c(C)cc2c(C(C)C)c(O)c(O)c(C=O)c2c1O` ?
Data returned: 20

* * *

Measured pIC50 by item
target: Solute carrier family 2, facilitated glucose transporter member 1 (Homo sapiens, UniProt P11166); assay: Inhibition of GLUT1-mediated glucose uptake in human A549 cells assessed as reduction in ATP synthesis up to 30 mins in presence of mitochondrial function blocker antimycin A; format: cell-based
Would you please state pIC50, meaning minus log10 of the concentration in mol/L, as a bare number?

INSERT INTO assay_data (sample_smiles, readout_value) VALUES
  ('CCOC(=O)[C@@]12CN(C(=O)OC(C)(C)C)CC=C1N(CCc1ccc(OC)c(OC)c1)C(=O)[C@H]2CC(=O)NCc1cccc2ccccc12', 5.52);

Consider the additional compound presented here.
Data request: Could you tell me which pIC50 is on file for `CCOC(=O)[C@@]12CCCCC/C=C\1N(Cc1cccc3ccccc13)C(=O)[C@H]2CC(=O)N1CCN(C(=O)c2ccco2)CC1` ?
Data returned: 5.00

* * *

target: UniProtKB P11166; assay: Inhibition of GLUT1 (unknown origin)-mediated glucose uptake expressed in CHO-K1 cells assessed as reduction in ATP synthesis up to 30 mins in presence of mitochondrial function blocker antimycin A; format: cell-based
readout.label: pIC50
Would you please state pIC50, meaning minus log10 of the concentration in mol/L, as a bare number?

INSERT INTO results (sample_smiles, readout_label, readout_value) VALUES
  ('CCOC(=O)[C@@]12CCCCC/C=C\1N(Cc1cccc3ccccc13)C(=O)[C@H]2CC(=O)N1CCN(C(=O)c2ccco2)CC1', 'pIC50', 5.70);

Consider the additional compound presented here.
Data request: Could you tell me which pIC50 is on file for `CCOC(=O)[C@@]12CN(C(=O)OC(C)(C)C)CC=C1N(CCc1ccc(OC)c(OC)c1)C(=O)[C@H]2CC(=O)NCc1cccc2ccccc12` ?
Data returned: 6.00

* * *

Molecular target: Solute carrier family 2, facilitated glucose transporter member 1 (Homo sapiens)
Sequence (P11166 whole entry): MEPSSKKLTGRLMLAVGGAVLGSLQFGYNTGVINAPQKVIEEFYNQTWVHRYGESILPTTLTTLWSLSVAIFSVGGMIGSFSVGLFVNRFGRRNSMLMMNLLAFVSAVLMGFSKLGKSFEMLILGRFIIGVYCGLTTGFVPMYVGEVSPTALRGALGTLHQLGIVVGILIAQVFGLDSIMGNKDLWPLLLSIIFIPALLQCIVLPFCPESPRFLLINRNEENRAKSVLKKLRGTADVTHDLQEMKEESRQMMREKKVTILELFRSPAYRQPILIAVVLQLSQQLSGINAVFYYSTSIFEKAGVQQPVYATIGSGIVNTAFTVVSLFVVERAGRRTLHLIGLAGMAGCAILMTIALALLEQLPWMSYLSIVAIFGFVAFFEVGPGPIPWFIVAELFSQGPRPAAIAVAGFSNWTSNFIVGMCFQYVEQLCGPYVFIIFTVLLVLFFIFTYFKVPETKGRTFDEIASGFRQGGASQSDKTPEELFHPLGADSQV
Experiment: Competitive inhibition of GLUT1 (unknown origin) expressed in CHO cells assessed as reduction in 2-[1,2-3H]deoxy-D-glucose uptake measured for 30 secs by double reciprocal plot analysis
Type: cell-based
readout.label: Ki (µM)
Response body: numeric value in µM, unit text excluded.

Data request: Could you tell me which Ki is on file for `O=c1c(-c2ccc(O)cc2)coc2cc(O)cc(O)c12` ?
Data returned: 7

Where do the numbers come from? From ChEMBL document CHEMBL3992488.
